Recorded NF-kB reporter, one value per entry.
System: RAW-Dual (murine macrophage reporter line)
Assay: NF-kB reporter (SEAP) activity fold change vs agonist alone; higher = enhanced NF-kB activity
Conditions: modulator concentration 10 µM; agonist: MPLA […]
Hey, just send me the number, nothing else.

Example entries and their recorded answers appear below.
COC(=O)N[C@H](C(=O)N1CCC[C@H]1c1ncc(-c2ccc(-c3ccc(-c4cnc([C@@H]5CCCN5C(=O)[C@@H](NC(=O)OC)C(C)C)[nH]4)cc3)cc2)[nH]1)C(C)C	1.22
COCCNC(=O)C=Cc1ccccc1	1.05
CO[C@@]12[C@H](COC(N)=O)C3=C(C(=O)C(C)=C(N)C3=O)N1C[C@@H]1N[C@@H]12	2.16

I have this compound here, O=C(Nc1ccc(NS(=O)(=O)c2ccc(Cl)cc2)cc1)c1ccccc1 , and I need its recorded NF-kB reporter.
0.911

What value of NF-kB reporter has been reported for the following compound? COc1cc(O)c(C(=O)Nc2nc(C(=O)NCCN(C(C)C)C(C)C)cs2)cc1OC.Cl.O.O.O
0.968

Any idea what its NF-kB reporter is? The compound is Cc1nc(Nc2ncc(C(=O)Nc3c(C)cccc3Cl)s2)cc(N2CCN(CCO)CC2)n1.O
0.644

* * *

System: RAW-Dual (murine macrophage reporter line)
Assay: NF-kB reporter (SEAP) activity fold change vs agonist alone; higher = enhanced NF-kB activity
Conditions: modulator concentration 10 µM; agonist: MPLA […]
Please enter MET where NF-kB reporter is greater than or equal to 1, and NOT MET where it is lower.

O=C(NC1CCN(CCCCC2(C(=O)NCC(F)(F)F)c3ccccc3-c3ccccc32)CC1)c1ccccc1-c1ccc(C(F)(F)F)cc1	MET
O=C(CC1Sc2ccccc2NC1=O)Nc1ccccc1 (configuration not stated)	MET
O=C1C(CCC(O)c2ccc(F)cc2)C(c2ccc(O)cc2)N1c1ccc(F)cc1 (configuration not stated)	MET
OCCCNCC(O)Cn1c2ccc(Br)cc2c2cc(Br)ccc21 (configuration not stated)	MET

Here's the next entry for you.
Confirm if NF-kB reporter reported for the molecule COC(=O)C1=C(C)NC(C)=C(C(=O)OCCN(C)Cc2ccccc2)C1c1cccc([N+](=O)[O-])c1 (configuration not stated) is 1 or above.
NOT MET

* * *

Reported IRF reporter values for the following compounds.
Test system: RAW-Dual (murine macrophage reporter line)
Assay: IRF reporter (Lucia luciferase) activity fold change vs agonist alone; higher = enhanced IRF activity
Settings: modulator concentration 10 µM; agonist: 3'3'-cGAMP 10 ug/mL
Format: numeric value only, no unit, no commentary.

Look over these answered cases.
CCCc1cc(=O)[nH]c(=S)[nH]1	0.611
N[C@@H](CC(=O)N1CCn2c(nnc2C(F)(F)F)C1)Cc1cc(F)c(F)cc1F	0.908
CCC(C(=O)N1CCC2(CC1)CC2(F)F)c1ccccc1 (stereo not drawn)	1.06
CC(C)NCC(O)COCCOc1ccc(C(C)(C)C)cc1.Cl (stereo not drawn)	0.569
COc1ccc(-c2csc(NC(=O)C3CC3)n2)cc1	0.876
C=C1CCC(OC(C)=O)C(C)=CCC2C1CC2(C)C (stereo not drawn)	0.671
COCCn1c(C)cc(C(=O)CSc2ncnc3sc4c(c23)CCC4)c1C	1.04
CNC(=O)[C@H](Cc1ccccc1)NC(=O)[C@H](CC(C)C)[C@H](CSc1cccs1)C(=O)NO	0.96
O=C(NCCN1C(=O)c2ccccc2C1(O)c1ccc(Cl)cc1)Nc1ccccc1 (stereo not drawn)	0.841
O=C(O)C=Cc1cccc(NS(=O)(=O)C=Cc2ccccc2)c1	0.956

Which IRF reporter is listed for CC(=O)Nc1ccc(S(=O)(=O)N2CCC(Oc3nc(C)cc(C)n3)C2)cc1 (stereo not drawn) ?
0.988

Requested read-out: IRF reporter. Entry: COC(=O)N[C@H](C(=O)N[C@@H](Cc1ccccc1)[C@@H](O)CN(Cc1ccc(-c2ccccn2)cc1)NC(=O)[C@@H](NC(=O)OC)C(C)(C)C)C(C)(C)C.O=S(=O)(O)O
0.886

* * *

Tested on: RAW-Dual (murine macrophage reporter line)
Experiment: viability score (confluency relative to resting cells, overnight) (fraction); higher = more viable, active = viable (0.7 or more)
Conditions: modulator concentration 10 µM
Return exactly one item of y = active, n = inactive

O=c1cc(-c2ccc(O)cc2)oc2cc(OC3OC(CO)C(O)C(O)C3O)cc(O)c12 (stereo unspecified)	y
CNc1ncnc2c1ncn2[C@@H]1O[C@H](CO)[C@@H](O)[C@H]1O	y
O=c1[nH]c(=O)n([C@H]2C[C@H](O)[C@@H](CO)O2)cc1I	y

In this assay, the call recorded for O=C(NC(=S)Nc1ccccc1C(F)(F)F)c1cccc(I)c1 was what?
y

Hi, sorry to bother you, what did the test record for COc1ccc(CN(CCN(C)C)c2ccccn2)cc1 ?
y

* * *

Tested on: RAW-Dual (murine macrophage reporter line)
Assay: NF-kB reporter (SEAP) activity fold change vs agonist alone; higher = enhanced NF-kB activity
Details: modulator concentration 10 µM; agonist: CpG ODN 1826 0.5 ug/mL
Is NF-kB reporter at least 0.9? Then t. If not, f.

COc1cccc2c1C(=O)c1c(O)c3c(c(O)c1C2=O)C[C@@](O)(C(=O)CO)C[C@@H]3O[C@H]1C[C@H](N)[C@H](O)[C@H](C)O1 [Prestw-438]	f
Cc1cc(=O)n2c(-c3cccc(NC(=O)c4ccc(C(F)(F)F)cc4)c3)csc2n1	f
O=C(c1ccc(Cl)cc1)c1ccc(N2CCOCC2)c([N+](=O)[O-])c1	f
CCCN1CCC(NCCc2cccc(Cl)c2)CC1	f
CCOC(=O)C1=C(C)NC(C)=C(C(=O)OCC)C1c1ccc(F)cc1	f

Reported NF-kB reporter at or above 0.9? CCN(CC)C(=O)N1CCN(C)CC1 [Prestw-284]
t

Is reported NF-kB reporter greater than or equal to 0.9 here: CC1CC(OC(=O)C(O)c2ccccc2)CC(C)(C)N1C (stereo unspecified) [Prestw-794]
t

Does the reported NF-kB reporter for CC(C)C1=CC2=CCC3C(C)(C(=O)O)CCCC3(C)C2CC1 (stereo unspecified) fall at or above the 0.9 mark?
t

State whether the measured NF-kB reporter reaches 0.9, counting equality as reaching it, for CCCCc1nc2cc(/C=C/C(=O)NO)ccc2n1CCN(CC)CC
t

Quick check: does CCC1=C(C)CN(C(=O)NCCc2ccc(S(=O)(=O)NC(=O)N[C@H]3CC[C@H](C)CC3)cc2)C1=O have NF-kB reporter greater than or equal to 0.9?
t

* * *

Entries and their IRF reporter
Test system: RAW-Dual (murine macrophage reporter line)
Assay: IRF reporter (Lucia luciferase) activity fold change vs agonist alone; higher = enhanced IRF activity
Conditions: modulator concentration 10 µM; agonist: MPLA […]
Lab note: jot down the number only; don't add units.

See these solved cases before continuing.
CC1=C(C(=O)OCc2ccc3c(c2)OCO3)C(c2ccc(Cl)c(Cl)c2)NC(=O)N1 (stereo not given)	0.772
Cc1ccc(-n2c(=O)c3c4c(sc3n3c(S)nnc23)CCCC4)cc1	1.15
C=CCNC1=C2C[C@@H](C)C[C@H](OC)[C@H](O)[C@@H](C)/C=C(\C)[C@H](OC(N)=O)[C@@H](OC)/C=C\C=C(/C)C(=O)NC(=CC1=O)C2=O	3.4

Short answer please: IRF reporter, RAW-Dual (murine macrophage reporter line), entry CCS(=O)(=O)N1CCC2(CC1)NC(=O)N(CCOc1ccccc1)C2=O
1.58

Recall the recorded IRF reporter for COc1cccc2c1C(=O)c1c(O)c3c(c(O)c1C2=O)C[C@@](O)(C(=O)CO)C[C@@H]3O[C@H]1C[C@H](N)[C@H](O)[C@H](C)O1.Cl with RAW-Dual (murine macrophage reporter line) and state it.
0.127

Any idea what IRF reporter came out for CCN(CC)c1ccc2cc(-c3nnc(NCc4ccccc4)s3)c(=O)oc2c1 on RAW-Dual (murine macrophage reporter line)?
1.28

Hi! What's the reported IRF reporter for COc1ccc(NC(=O)CCn2nc(C)nc2C)cc1 on RAW-Dual (murine macrophage reporter line)?
1.01

State its IRF reporter on RAW-Dual (murine macrophage reporter line): Cc1ccc(C(CNC(=O)NC2CCCC2)OCCO)cc1 (stereo not given)
1.1

Request: IRF reporter, test system RAW-Dual (murine macrophage reporter line), entry COc1ccc(CN(CCN(C)C)c2ccccn2)cc1 [Prestw-289]
0.848

API: value(readout=IRF reporter, system=RAW-Dual (murine macrophage reporter line)) for record CC(=NNC(=O)CSc1nc2ccccc2n1Cc1ccccc1)c1ccc(Br)cc1
1.01

* * *

In this section, each of the compounds is paired with its reported IRF reporter.
System: RAW-Dual (murine macrophage reporter line)
Assay: IRF reporter (Lucia luciferase) activity fold change vs agonist alone; higher = enhanced IRF activity
Conditions: modulator concentration 10 µM; agonist: MPLA […]
Respond numerically, and do not add a unit to the figure.

CCCCS(=O)(=O)N[C@@H](Cc1ccc(OCCCCC2CCNCC2)cc1)C(=O)O.Cl.O	1.26
COc1cc(C=NNC(=O)c2ccc(OC)c(OC)c2)ccc1O	1.15
CCc1ccc(CCOc2ccc(CC3SC(=O)NC3=O)cc2)nc1.Cl (stereo not given)	1.19
c1ccc(-n2nnnc2SCc2ccc3c(c2)OCO3)cc1	1.13
COc1cccc(N2CCN(C3CCN(CC4CCOCC4)CC3)CC2)c1	1.42

Data request, read-out IRF reporter, for O=c1[nH]c(=O)n([C@H]2C[C@H](O)[C@@H](CO)O2)cc1I
0.967

I am curious: what IRF reporter value has been reported for COC(CNS(=O)(=O)c1cccnc1)c1ccc(C)s1 (stereo not given) ?
0.958

Would you mind telling me what IRF reporter value was observed for Cc1cccc(Cn2c(=O)c3nscc3n(Cc3ccc(F)c(F)c3)c2=O)c1 ?
0.899

Name the reported IRF reporter value associated with the compound CCc1ccc2nc(NCCCN3CCOCC3)sc2c1
1.3

Would you mind telling me what IRF reporter value was observed for CCOC(=O)C(CCc1ccccc1)NC1CCc2ccccc2N(CC(=O)O)C1=O.Cl (stereo not given) ?
1.33

Give its IRF reporter value. Item: CC/C(=C(\c1ccccc1)c1ccc(OCCN(C)C)cc1)c1ccccc1.O=C(O)CC(O)(CC(=O)O)C(=O)O
1.38

What measured IRF reporter goes with CCN1C(=O)C(=C2SC(N3CCOCC3)=NC2=O)c2ccccc21 ?
0.978

Entry CC1CC(=CC=CN(C)C)C(=O)C(=CC=CN(C)C)C1 (stereo not given) : reported IRF reporter = ?
1.32

Dear colleague, I am looking for the recorded IRF reporter of the following compound: CC(C)(C)C1=CC2(C=C(C(C)(C)C)C1=O)Nc1cccc3cccc(c13)N2
0.942

IRF reporter for O=c1ccn([C@@H]2O[C@H](CO)[C@@H](O)[C@H]2O)c(=O)[nH]1 ?
0.919

Would you mind telling me what IRF reporter value was observed for CCN(CC)c1ccc(C=C(C#N)c2n[nH]c(N)c2C#N)c(OC)c1 ?
1.18

# input compound: O=Cc1c[nH]c2ccccc12 ; wanted: its IRF reporter
1.54

For the compound shown here, OCCN(CCO)c1nc(N2CCCCC2)c2nc(N(CCO)CCO)nc(N3CCCCC3)c2n1 , give the reported IRF reporter.
1.28

All values here come from the supplement of paper PMC10646978.
